# target-entity: T1, streptavidin (UniProt P22629 37-163, limits assumed)
# T1 construct: It was used without a stated label in the sandwich assays; also called SA
# T1 sequence (P22629 37-163 limits assumed): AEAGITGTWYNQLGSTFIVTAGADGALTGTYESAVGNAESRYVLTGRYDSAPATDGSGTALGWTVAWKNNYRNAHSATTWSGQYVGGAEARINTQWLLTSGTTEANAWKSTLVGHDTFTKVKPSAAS
# assay-notes: fluorescent binding curve, labeled SA in 50% blood serum, 4 h; quadratic fit
observed-property: [P]T (total concentration of binding sites) (nM)
Express the result in nM but write the number alone.

# input Recorded [P]T (total concentration of binding sites) of rcSso7d.SA monolayer (designed binder, EDC/NHS-activated protein coupled to an amine-functionalized silicon wafer, also called monomeric rcSso7d.SA; surface-immobilized rcSso7d.SA) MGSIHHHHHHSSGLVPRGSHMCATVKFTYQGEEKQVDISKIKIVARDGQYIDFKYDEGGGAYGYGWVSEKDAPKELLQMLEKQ , please.
# output 0.28

# input # iterate: 3xSP30.3k thin film (3x rcSso7d.SA-PNIPAM conjugate, PNIPAM Mn 30.3 kDa) (designed binder, maleimide end-functionalized PNIPAM (Mn 30.3 kDa) on the N-terminal Cys; film lightly crosslinked with glutaraldehyde) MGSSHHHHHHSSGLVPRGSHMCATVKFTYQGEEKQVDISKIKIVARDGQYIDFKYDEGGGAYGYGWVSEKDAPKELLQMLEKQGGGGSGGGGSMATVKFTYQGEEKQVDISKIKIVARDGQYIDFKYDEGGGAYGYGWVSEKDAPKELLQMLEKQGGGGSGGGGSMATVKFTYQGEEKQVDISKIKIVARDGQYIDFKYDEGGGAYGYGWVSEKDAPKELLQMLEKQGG
# output 0.23

# input # iterate: 3xSP9.6k thin film (3x rcSso7d.SA-PNIPAM conjugate, PNIPAM Mn 9.6 kDa) (designed binder, maleimide end-functionalized PNIPAM (Mn 9.6 kDa) on the N-terminal Cys; film lightly crosslinked with glutaraldehyde) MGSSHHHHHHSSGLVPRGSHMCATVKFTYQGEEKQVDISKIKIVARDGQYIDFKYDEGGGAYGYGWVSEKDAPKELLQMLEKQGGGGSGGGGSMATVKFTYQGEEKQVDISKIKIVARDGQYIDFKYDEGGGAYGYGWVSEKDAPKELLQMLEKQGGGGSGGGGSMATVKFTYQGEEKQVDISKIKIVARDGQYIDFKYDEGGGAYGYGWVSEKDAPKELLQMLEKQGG
# output 0.27

# input # iterate: 3xSP77.6k thin film (3x rcSso7d.SA-PNIPAM conjugate, PNIPAM Mn 77.6 kDa) (designed binder, maleimide end-functionalized PNIPAM (Mn 77.6 kDa) on the N-terminal Cys; film lightly crosslinked with glutaraldehyde) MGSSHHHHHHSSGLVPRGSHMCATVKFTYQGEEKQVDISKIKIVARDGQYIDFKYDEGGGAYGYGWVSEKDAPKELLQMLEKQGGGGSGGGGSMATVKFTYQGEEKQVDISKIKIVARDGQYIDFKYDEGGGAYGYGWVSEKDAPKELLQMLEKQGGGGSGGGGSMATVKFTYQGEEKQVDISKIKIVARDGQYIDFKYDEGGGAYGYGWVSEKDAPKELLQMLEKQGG
# output 0.6
